B1: Intersectin-2, residues 1129 to 1183; numbered along this chain, Q9NZM3 (parent)
chain: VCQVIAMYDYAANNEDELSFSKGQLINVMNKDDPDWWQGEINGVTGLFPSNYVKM

variants of: B1; test: abundance fitness (aPCA) (normalised: wild type 0, dead -1); higher = more abundant; growth selection in yeast, the domain comes from the species named; conditions: Homo sapiens
Short version: abundance fitness at least -0.6 is true (1), less is false (0).

Recorded results for 4 variants are shown here.
{"columns": ["variantSpec", "groupLabel"],
 "data": [
  ["N51D", "true (1)"],
  ["G46Q", "false (0)"],
  ["L18D", "false (0)"],
  ["S50P", "true (1)"]
]}

Entry `D16C` : is its abundance fitness no less than -0.6?
true (1)

Dear colleague, could you confirm whether `S50E` has abundance fitness at or above -0.6?
true (1)

Given `A12Q` , state whether its abundance fitness is at least -0.6.
true (1)
